The measurements presented in this section are drawn from PubChem BioAssay (NCI).

System: SR leukemia
Test: NCI-60 one-dose screen, 48 h
Conditions: 10 µM unless noted
This is part of a sample that, as a whole, favours compounds with a hit. Of some 83,000 tested, about 20% had one in any assay. Activity calls are given as the source filed them. Rule for the calls: active = growth percent below 10; inactive = the rest.
Can you answer with just one of these options? active, inactive

input: Tell me the assay call for O=C1NCCN1/N=C/c1c(Cl)n(Cc2ccc(Cl)cc2)c2ccccc12 please.
output: inactive

input: Follow-up item: Clc1ccc(C2=Nn3c(nnc3-c3cc(Cl)cc(Cl)c3Cl)SC2)cc1
output: active

input: What about this compound? COc1ccc(-c2nc(SCCC(C)C)nc(N/N=C(/C)c3ccc(N)cc3)c2C#N)cc1
output: inactive

input: Check O=C(Oc1ccccc1)c1cc(O)c(O)c(O)c1 too.
output: inactive

input: What do we get for CCOC(=O)/C(=C\c1ccccc1Cl)P(=O)(OCC)OCC ?
output: active

input: Another compound to check: CC1=C2[C@@H](CC1)[C@]1(C)O[C@@](C(C)C)(C[C@H]1OC(=O)CO)[C@H]2OC(=O)CCCc1ccccc1
output: inactive

input: Next: CN1CC(c2ccccc2)C(C(=O)c2ccc(Br)cc2)C12C(=O)Nc1ccccc12 (stereo unspecified)
output: inactive

input: Proceed to C=CCOC(=O)C1=C(C)N(CC)C(=O)N(CC)C1c1c(Cl)n(C)c2ccccc12 (stereo unspecified)
output: inactive

input: Another compound to check: COc1ccc(/C=N\NC(=O)c2ccc3nc(-c4ccc(Cl)cc4)[nH]c3c2)cc1
output: active

input: Subsequent entry: COc1ccc(C2=NN3C(C2)c2cc(Br)ccc2OC3c2ccncc2)cc1 (stereo unspecified)
output: inactive

input: // same read-out, input: C#C[C@]1(O)CC[C@H]2[C@@H]3CC=C4c5sc(-c6cccc(C)c6)nc5CC[C@]4(C)[C@H]3CC[C@@]21C
output: inactive

input: Item: N#CC1=C(N)Oc2c(ccc3cccnc23)C1c1ccccc1 (stereo unspecified)
output: inactive

input: Ok, now O=C(NCCN1CCOCC1)c1cncnc1Nc1ccc2c(ccn2Cc2ccccn2)c1
output: inactive

input: Ok, now C=CC(=O)NCc1cccc(Nc2ncc(Br)c(NCCCNC(=O)C3CCC3)n2)c1
output: active

input: // repeat for O=c1ccc2nc(-c3ccccc3)nn(-c3ccccn3)c-2c1 and report
output: active

input: // same read-out, input: CCOC(=O)C#Cc1c(CC(=O)OCC)nnn1[C@H]1O[C@@H](CO)[C@@H]2OC(C)(C)O[C@@H]21
output: active

input: What would you report for CCN1C(=O)N(CC)C2C1NN=c1s/c(=C\c3ccc([N+](=O)[O-])cc3)c(=O)n12 (stereo unspecified) ?
output: inactive

input: Then this compound: Cc1nc2sc(C(=O)Nc3ccccc3)c(N)c2cc1C(O)c1ccccc1 (stereo unspecified)
output: active

input: How about this compound: COc1cc2c(cc1OC)CC[N+](CCC[N+](C)(C)C)=C2
output: inactive

input: Next compound up: COc1cccc(CNc2nnc(C)c(C)n2)c1O
output: inactive

input: Now consider Oc1cccc2c1NCCC2 .
output: inactive

* * *

System: SF-268 CNS
Assay: NCI-60 one-dose screen, 48 h
Details: 10 µM unless noted
Experimental: Cells are grown in 96 well plates and exposed to the test compound for 48 hours. Compounds are tested at a single concentration, which is 10^-5 M for most compounds. The reported endpoint is percent growth (GI% or GIPRCNT), where numbers from 0 - 100% represent growth inhibition, and numbers from -100% - 0 represent cell death. For example, a value of 40 represents 60% growth inhibition. A value of 0 means no net growth occurred over the course of the experiment. […]
About 83,000 compounds went through this panel and 20% of them were active in at least one assay; those are over-represented in the sample as a whole. The source made the active and inactive calls. Rule for the calls: active = growth percent below 10; inactive = the rest.
# output must be one of 1 (yes) = active, 0 (no) = inactive

input: Fill in: this test's call for Cc1nn(-c2ccccc2)c(Oc2ccccc2)c1/C=N/NC(=O)Cn1c(=O)sc2ccccc21 is ___
output: 0 (no)

input: Same thing, different compound: CC(C)n1nc(-c2ccc3oc(N)nc3c2)c2c(N)ncnc21
output: 1 (yes)

input: Next: O=C1/C(=C/c2ccccc2)COc2ccc(O)cc21
output: 0 (no)

input: Queued: COc1cccc(C2C(C#N)=C(N)Oc3c2ccc2ccccc32)c1 (configuration not stated)
output: 0 (no)

input: How about this compound: O=C(Nc1ccc2c(c1)-c1ccccc1C2)C1CC(=O)N(c2ccc3c(c2)OCO3)C1 (configuration not stated)
output: 0 (no)

input: Then O=C(/C=C/c1ccc(Cl)cc1)c1ccc(Nc2ccnc3cc(Cl)ccc23)cc1 ?
output: 0 (no)

input: Same question for Cn1nc(-c2ccc(Cl)cc2)nc2c(=O)n(C)c(=O)nc1-2 please.
output: 1 (yes)

input: Let us now turn to O=C(OCC(O)C(=O)NC12CC3CC(CC(C3)C1)C2)c1cccc(Br)c1 (configuration not stated)
output: 0 (no)

input: Cool, now Cc1nc2cccc(NCc3ccc(C(=O)NO)cc3)c2c(=O)n1-c1ccccc1
output: 0 (no)

input: CCN1CCN(c2nc(NNC(=O)c3ccc(OC)cc3)nc(N3CCN(C(c4ccccc4)c4ccccc4)CC3)n2)CC1 , same question.
output: 0 (no)

input: Try the compound Cc1cc(C(=O)Nc2cc(Nc3ncccc3-c3ncnc4nc[nH]c34)ccc2F)cc(C(C)(C)C#N)c1
output: 0 (no)

input: Same question, O=C1c2cccnc2C(=O)c2c1c(C(=O)OCCCN1CCOCC1)c1ccccn21 this time
output: 1 (yes)

input: Would you kindly repeat that for O=C(Nc1ncc(Cc2ccccc2)s1)c1ccc2c(c1)OCCO2 ?
output: 0 (no)

input: Next up: Clc1nc(N2CCC[N+]3(CC2)CC[N+]2(CCCNCC2)CC3)nc(N2CCC[N+]3(CC2)CC[N+]2(CCCNCC2)CC3)n1 (configuration not stated)
output: 0 (no)

input: # iterate: CCN1CCN(C(=O)[C@]23CC[C@@H](C)[C@H](C)[C@@H]2C2=CC[C@@H]4[C@@]5(C)C/C(=C/c6ccncc6)C(=O)C(C)(C)[C@@H]5CC[C@@]4(C)[C@]2(C)CC3)CC1
output: 0 (no)

input: Try this compound too: O=C1C(Nc2ccc(Br)cc2)=C(I)C(=O)c2ncccc21
output: 0 (no)

input: // next record COc1ccc(-c2nc(SCCC(C)C)nc(N/N=C(/C)c3ccc(N)cc3)c2C#N)cc1
output: 0 (no)

input: Same question for Cc1cc2c(C(C)C)c(O)c(O)c(/C=N/O)c2c(O)c1-c1c(C)cc2c(C(C)C)c(O)c(O)c(/C=N/O)c2c1O please.
output: 0 (no)

input: One more compound: COC(=O)CCc1c(/C=C2\N=C(c3ccc[nH]3)C=C2OC)[nH]c(C)c1C(=O)OCc1ccccc1
output: 0 (no)

input: Check c1ccc(-c2nc(N3CCNCC3)c3oc(-c4ccccc4)nc3n2)cc1 too.
output: 1 (yes)

input: Record: COc1ccc(/C(C)=C(\c2ccc(Cl)cc2)c2ccc(OCCCN(C)C)cc2)cc1
output: 0 (no)

input: Let us now turn to C=C(c1ccc(OC)c(/C=C/C(=O)c2cc(OC)c(OC)c(OC)c2)c1)c1cc(OC)c(OC)c(OC)c1
output: 0 (no)

input: Next: O=C(Nc1ccc(Cl)cc1)C1=NCCCCN1
output: 0 (no)

input: Next compound: Cc1c(C(=O)C(SC(=S)N2CCOCC2)SC(=S)N2CCOCC2)nnn1-c1ccc([N+](=O)[O-])cc1
output: 0 (no)

input: # iterate: C=C1/C(=C\C=C2/CCC[C@]3(C)[C@@H]([C@H](C)CCCC(C)(C)O)CC[C@@H]23)C[C@@H](OC(=O)CBr)C[C@@H]1O
output: 0 (no)

input: And O=C(O)/C=C\C(=O)Nc1ccc2c(c1)Cc1cc(F)ccc1-2 ?
output: 0 (no)

input: Would you mind doing O=C1C=CC2(O)OC(c3ccccc3)CC(=O)C2=C1O (configuration not stated) as well?
output: 0 (no)

input: Please do the same for COc1ccc(Nc2nccc(Nc3ccc4[nH]ncc4c3)n2)cc1 as well.
output: 0 (no)

input: Also check C[C@@H]1N=C(c2ccc(Cl)cc2Cl)Nc2nc3ccccn3c2C1=O
output: 0 (no)

input: # iterate: O=C(CSc1nnc(-c2ccc(Cl)c(Cl)c2)n1-c1ccccc1)Nc1ccc(C(=O)/C=C/c2ccc(Cl)cc2)cc1
output: 0 (no)

input: What do we get for CCOC(=O)C1=C(c2ccccc2)N=C2N(c3ccccc3)N=C(C(C)=O)N2C1c1ccc(Br)cc1 (configuration not stated) ?
output: 0 (no)

input: Proceed to C#CC(F)(F)[C@]1(O)CCC2C3CCC4=CC(=O)CCC4=C3[C@@H](c3ccc(N(C)C)cc3)C[C@@]21C (some centres not stated)
output: 0 (no)

input: Record: C1=C2CCCC3=Cc4ccccc4OC23Oc2ccccc21
output: 0 (no)

input: Consider next the compound CCOc1cc(\C=N/N=C(N)/C(N)=N\N=C/c2ccc(O)c(OCC)c2)ccc1O in the same way.
output: 0 (no)

input: Can you handle C=C(CNCCc1ccc(O)cc1)[C@@H]1CC[C@]2(CO)CC[C@]3(C)[C@H](CC[C@@H]4[C@@]5(C)CCC(N)C(C)(C)[C@@H]5CC[C@]43C)[C@@H]12 (some centres not stated) next?
output: 1 (yes)

input: Consider next the compound O=C(c1ccc(F)cc1)C1CCN(CCn2c(=O)[nH]c3ccccc3c2=O)CC1 in the same way.
output: 0 (no)

input: Cc1[nH]c(C(=O)Nc2ccc(C(N)=O)cc2OC(C)C)c(Cl)c1Cl ?
output: 0 (no)
